assay: GLQGE detection in plasma after injection; type: in vivo, mice; details: mouse, sc, 1 mg/mouse
Where a SMILES comes first, the peptide text is derived from it.
Reported Property: Tmax (min)
Give bare numbers, in min.

Can you share its Tmax? I mean this compound: CC(C)C[C@@H]1NC(=O)CNC(=O)[C@H](CCC(=O)O)NC(=O)CNC(=O)[C@H](CCC(N)=O)NC1=O [GLQGE] (cyclo(EGLQG))
15

----------
assay: GLQGE detection in plasma after injection; assay type: in vivo, mice; conditions: mouse, ip, 0.5 mg/mouse
Where a SMILES comes first, the peptide text is derived from it.
Reported Property: Tmax (min)
Answers are plain numbers, in min.

Entry CC(C)C[C@@H]1NC(=O)CNC(=O)[C@H](CCC(=O)O)NC(=O)CNC(=O)[C@H](CCC(N)=O)NC1=O [GLQGE] (cyclo(EGLQG)) : reported Tmax = ?
15
